Hey, just so you know, these numbers are from ChEMBL document CHEMBL1152649.

# Lookup of reported growth at 10 µM keyed by entry
System: NCI-H322M
Experiment: Antiproliferative activity against human NCI-H322M cells assessed as cell growth at 10 uM
Type: functional
Conditions: read-out: Activity
Please respond with the number in % and leave the unit unwritten.

// known answers, use as guide
# smiles.representation, endpoint.unit, growth at 10 µM
rows = [
    ("O=C1c2ccccc2C(=O)c2c1ccc1nc(-c3ccccc3)[nH]c21", "%", 77.4),
    ("Cc1ccc(-c2nc3ccc4c(c3[nH]2)C(=O)c2ccccc2C4=O)cc1", "%", 84.6),
]

Qu. Request - read-out growth at 10 µM | tested on NCI-H322M | compound CN(C)c1ccc(-c2nc3ccc4c(c3[nH]2)C(=O)c2ccccc2C4=O)cc1
Ans. 94.8

Qu. Request - read-out growth at 10 µM | tested on NCI-H322M | compound CC1(C)Nc2ccc3c(c2N1)C(=O)c1ccccc1C3=O
Ans. 79.7

Qu. Request - read-out growth at 10 µM | tested on NCI-H322M | compound O=C1c2ccccc2C(=O)c2c1ccc1nc(-c3ccc(Br)cc3)[nH]c21
Ans. 167

Qu. Request - read-out growth at 10 µM | tested on NCI-H322M | compound O=C1c2ccccc2C(=O)c2c1ccc1nccnc21
Ans. 96.3

Qu. Request - read-out growth at 10 µM | tested on NCI-H322M | compound O=C1c2ccccc2C(=O)c2c1ccc1nc(-c3ccc4c(c3)OCO4)[nH]c21
Ans. 150

Qu. Request - read-out growth at 10 µM | tested on NCI-H322M | compound CCc1nc2ccc3c(c2[nH]1)C(=O)c1ccccc1C3=O
Ans. 31.4
